Source: PubChem BioAssay (NCI)

Experiment: NCI Yeast Anticancer Drug Screen. Data for the CLN2oe strain (AID 163)
Details: S. cerevisiae CLN2oe strain, at 33.0 µM
This is part of a sample that, as a whole, favours compounds with a hit. Of some 79,000 tested, about 15% had one in any assay. The source made the active and inactive calls. Rule as the data show it: active = growth inhibition above about 70%; inactive = the rest.
Bench note: report the call from active, inactive

INPUT: Tell me the recorded outcome of this test for On1cnc(=S)c2[nH]cnc21 .
OUTPUT: inactive

INPUT: Tell me the recorded outcome of this test for CC(=O)CC(=O)/C=C/c1cccs1 .
OUTPUT: inactive

INPUT: Tell me the recorded outcome of this test for c1ccc(N2N=C3N(c4ccccc4)C2N3c2ccccc2)cc1 .
OUTPUT: inactive

INPUT: Tell me the recorded outcome of this test for COc1cc2c(cc1C[N+](C)(C)CSc1ccccc1)-c1ccccc1CC2 .
OUTPUT: active

INPUT: Tell me the recorded outcome of this test for [Pt].c1ccc(P(CCP(c2ccccc2)c2ccccc2)CCP(c2ccccc2)c2ccccc2)cc1 .
OUTPUT: active
